Test system: HaCat
Test: Cytotoxic Profiling of Annotated Libraries Using Quantitative High-Throughput Screening (AID 1296008); further: on the % scale 0 is the no-effect control and ±100 the full control effect; nearly all actives have a fitted effect of over 60% in size
Details: Five cell lines viability, CellTiter-Glo ATP luminescence, 48-72 h; hits give low values
Inconclusive results are not listed. Calls of active or inactive are those of the source. The call rests on the fitted dose curve; in most records, active means well fitted inhibition curve with a large enough effect; inconclusive means small, poorly fitted or top-dose-only effect; inactive means flat fitted curve, though single readings scatter.
Documented max response across a set of molecules

molecule: COc1cc(O)c([C@@H](CC(=O)N2CC(C)CC(C)C2)c2ccc3c(c2)OCO3)c(OC)c1 (some centres not stated)
max response: -11.1% (inactive)
--
molecule: O=[N+]([O-])c1cn2c(n1)OCC(OCc1ccc(OC(F)(F)F)cc1)C2 (configuration not stated)
max response: -6.12% (inactive)
--
molecule: CCC(=O)O[C@H]1C(C)(C)[C@H]([C@@H](O)C(=O)OC)[C@]2(C)C(=O)[C@@]1(O)[C@H]1O[C@]13C1CC(=O)O[C@@H](c4ccoc4)[C@]1(C)CCC32 (some centres not stated)
max response: -11.6% (inactive)
--
molecule: c1ccc(-c2csc(N3CCOCC3)n2)cc1
max response: -7.34% (inactive)
--
molecule: C[C@@H]1C(=O)O[C@H]2C[C@]34[C@H]5C[C@@H](C(C)(C)C)[C@]36[C@@H](OC(=O)[C@H]6O)O[C@]4(C(=O)O5)[C@]21O
max response: 3.22% (inactive)
--
molecule: CC1CCC2(CO)C(C(=O)O)=CCCC2C1(C)CCc1ccoc1 (configuration not stated)
max response: -11.9% (inactive)
--
molecule: CC(C)C(C(=O)N(C)C(C)C(N)=O)N(C)C(=O)C1CCCN1C(=O)/C=C/C=C/C(O)C(C)O (configuration not stated)
max response: -10.3% (inactive)
--
molecule: COc1ccc(-c2c(-c3cc(C(=O)O)ccn3)ncn2C)cc1
max response: -1.2% (inactive)
--
molecule: C[C@@H]1O[C@@H](O[C@H]2[C@H](OC(=O)[C@]34CCC(C)(C)C[C@H]3C3=CCC5[C@@]6(C)CC[C@H](O[C@@H]7O[C@H](C(=O)O)[C@@H](O)[C@H](O)[C@H]7O[C@@H]7O[C@H](CO)[C@H](O)[C@H](O)[C@H]7O)[C@@](C)(C=O)C6CC[C@@]5(C)[C@]3(C)C[C@H]4O)O[C@H](C)[C@H](O[C@@H]3O[C@H](C)[C@H](O)[C@H](O)[C@H]3O)[C@@H]2O)[C@H](O)[C@H](O)[C@H]1O[C@@H]1OC[C@@H](O)[C@H](O[C@@H]2O[C@H](CO)[C@@H](O)[C@H](O)[C@H]2O)[C@H]1O (some centres not stated)
max response: -0.834% (inactive)
--
molecule: C[C@@H]1O[C@@H](O[C@H]2[C@@H](OC(=O)[C@]34CCC(C)(C)CC3C3=CCC5[C@@]6(C)C[C@H](O)[C@H](O[C@@H]7O[C@H](C(=O)O)[C@@H](O)[C@H](O)[C@H]7O)[C@@](C)(C(=O)O)C6CC[C@@]5(C)[C@]3(C)CC4)OC[C@H](O)[C@@H]2O)[C@H](O)[C@H](O)[C@H]1O[C@@H]1OC[C@@H](O)[C@H](O)[C@H]1O (some centres not stated)
max response: -1.2% (inactive)
--
molecule: C=C(CO[C@@H]1O[C@H](CO[C@@H]2OC[C@](O)(CO)[C@H]2O)[C@@H](O)[C@H](O)[C@H]1O)C1Cc2cc(C(C)=O)ccc2O1 (some centres not stated)
max response: -0.415% (inactive)
--
molecule: CC(=O)O[C@@H]1[C@@H](OC(=O)/C=C/c2ccccc2)[C@@H](OC(C)=O)[C@H](O[C@H]2[C@@H]3C=CO[C@@H](O[C@@H]4O[C@H](CO)[C@@H](O)[C@H](O)[C@H]4O)[C@@H]3[C@@]3(CO)O[C@@H]23)O[C@H]1C
max response: -11.2% (inactive)

---

System: C33A
Test: Primary qHTS to identify gynecologic anti-cancer compounds using libraries of approved drugs and bioactive compounds (AID 1345084); further: potency means the concentration at half of the fitted maximal effect; nearly all actives have a fitted effect of over 55% in size
Conditions: Gynecologic cancer cell panel viability, ATPlite luminescence, 48 h; series mostly up to 57.5 µM
Inconclusive results are not listed. Calls of active or inactive are those of the source. The call rests on the fitted dose curve; in most records, active means well fitted cell-killing curve with a large enough effect; inconclusive means small, poorly fitted or top-dose-only effect, or effect the other way; inactive means flat fitted curve, though single readings scatter.
Potency values, listed per item

compound: Nc1ncnc2c1nc(N)n2[C@@H]1O[C@H](CO)[C@@H](O)[C@H]1O
target.or.system: C33A
Potency: 3.55 µM (active)
--
compound: c1cn2cc(-c3ccc4cn[nH]c4c3)nc(Nc3ccc(N4CCOCC4)cc3)c2n1
target.or.system: C33A
Potency: 2.24 µM (active)
--
compound: Cc1cc(Nc2cc(N3CCN(C)CC3)nc(/C=C/c3ccccc3)n2)n[nH]1
target.or.system: C33A
Potency: 28.2 µM (active)
--
compound: Nc1ccc(/C=C/C(=O)NCc2cc3cc(-c4ccc(C(=O)N5CCC(F)(F)CC5)cc4)cc(-c4ccc(F)cc4)c3o2)cn1
target.or.system: C33A
Potency: 7.08 µM (active)
--
compound: C=C1C(=O)O[C@@H]2C/C(C)=C\C(=O)/C=C(\C)[C@@H](OC(=O)/C(C)=C\C)[C@H](O)[C@@H]12
target.or.system: C33A
Potency: 10 µM (active)
--
compound: CC(C)(C)Nc1nc(Nc2ccc(C(N)=O)cc2)cc(N)c1C#N
target.or.system: C33A
Potency: 25.1 µM (active)
--
compound: Cc1ccc(S(=O)(=O)c2ccc([N+](=O)[O-])o2)cc1
target.or.system: C33A
Potency: 11.2 µM (active)
--
compound: COc1ccc2[nH]c3c(-c4cccc5ccccc45)nccc3c2c1
target.or.system: C33A
Potency: 2.82 µM (active)
--
compound: CC(C)NCC(C(=O)N1CCN(c2ncnc3c2C(C)CC3O)CC1)c1ccc(Cl)cc1 (stereo not drawn)
target.or.system: C33A
Potency: 3.98 µM (active)
--
compound: COc1cc2nc(N3CCCC3)nc(NCCCCCN3CCCC3)c2cc1OC
target.or.system: C33A
Potency: 15.8 µM (active)
--
compound: COc1c/c(=C2\C=c3ccccc3=N2)[nH]/c1=C\c1[nH]c(C)cc1C
target.or.system: C33A
Potency: 1.41 µM (active)
--
compound: CN(C)c1ccc2c(c1)OC(N)=C(C#N)C2c1cccc(C(F)(F)F)c1 (stereo not drawn)
target.or.system: C33A
Potency: 0.631 µM (active)
--
compound: CN(C)C/C=C/C(=O)Nc1cccc(C(=O)Nc2ccc(Nc3nccc(-c4cccnc4)n3)cc2)c1
target.or.system: C33A
Potency: 12.6 µM (active)
--
compound: FC(F)(F)c1ccc(Nc2nc(-c3c(C(F)(F)F)nc4ccccn34)cs2)cc1
target.or.system: C33A
Potency: 20 µM (active)
--
compound: COc1cc(C(=O)NC2CCN(C)CC2)c(F)cc1Nc1ncc2c(n1)N(C1CCCC1)CC(F)(F)C(=O)N2C
target.or.system: C33A
Potency: 0.282 µM (active)
--
compound: CC[C@@H](N)CNc1ccnc(-c2cc(-c3cnn(C)c3)ccc2O)n1
target.or.system: C33A
Potency: 8.91 µM (active)
--
compound: CCN1CCN(Cc2ccc(NC(=O)c3ccc(C)c(/C=C/c4cnc5[nH]ccc5c4OC)c3)cc2C(F)(F)F)CC1
target.or.system: C33A
Potency: 14.1 µM (active)
--
compound: CCCCc1nc2cc(/C=C/C(=O)NO)ccc2n1CCN(CC)CC
target.or.system: C33A
Potency: 5.01 µM (active)
